# test: Aqueous solubility of the compound in water by HPLC-UV spectrophotometric analysis
# Assay type: physicochemical
assay.metric: solubility

| mol | recorded.measurement |
| --- | --- |
| C=CCSC1=CC(=O)C(N[C@H]2CC[C@H](O)CC2)=CC1=O | < 1 mg/mL |
| C=CCSC1=CC(=O)C(N[C@H]2CC[C@H](N)CC2)=CC1=O.Cl | 23.2 mg/mL |
| C=CCSC1=CC(=O)C(NCCCNC)=CC1=O.Cl | > 200 mg/mL |

Give recorded solubility. `C=CCSC1=CC(=O)C(NCCCN(C)C)=CC1=O.Cl` > 200 mg/mL

Data origin: ChEMBL document CHEMBL4196043
